Values were extracted from PubChem BioAssay AID720508.

test_system: Fibrinogen beta chain (Homo sapiens) (UniProt P02675)
Sequence (P02675 whole entry, looked up): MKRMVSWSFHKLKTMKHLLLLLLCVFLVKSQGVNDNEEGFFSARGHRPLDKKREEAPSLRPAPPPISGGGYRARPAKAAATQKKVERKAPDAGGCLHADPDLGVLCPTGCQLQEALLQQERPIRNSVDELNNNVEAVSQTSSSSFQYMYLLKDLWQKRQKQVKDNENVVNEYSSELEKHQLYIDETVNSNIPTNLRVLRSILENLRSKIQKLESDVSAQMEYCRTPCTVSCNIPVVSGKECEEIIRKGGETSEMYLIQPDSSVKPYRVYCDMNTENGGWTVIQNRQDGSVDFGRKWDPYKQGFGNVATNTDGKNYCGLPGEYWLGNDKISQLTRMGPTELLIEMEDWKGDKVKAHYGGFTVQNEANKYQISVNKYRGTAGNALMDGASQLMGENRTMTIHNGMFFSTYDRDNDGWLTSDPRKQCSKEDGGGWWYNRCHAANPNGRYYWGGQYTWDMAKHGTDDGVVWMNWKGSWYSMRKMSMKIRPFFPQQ
experiment: small molecules displacing Tn7 from DD(E) complex – biochemical, fluorescence polarization, human fibrin, Tn7 probe, primary screen (AID 720508);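 note: 0% = plate median of compound wells and 100% = 10 µM Aha-Tn7 peptide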
test_parameters: FP displacement of FITC-Tn7 peptide from fibrin DD(E); at 8.3 µM; 0% = median of compound wells per plate
Among all 370,000 compounds or so, about 500 (0.14%) were called active.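 Rule for the calls: active = inhibition above the mean of compounds falling within the control limits plus 3 SD of them (cut at about 14% in these data); inactive = the rest.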 What follows is part of a selection rich in actives, with near analogues and random picks from the rest.
Choose the fitting class; nothing outside true (1) (active), false (0) (inactive) is accepted.

Some solved entries appear below for comparison.
>>> print(df.to_string())
                                   compound  group_label
0  O=C(c1c(Cl)cccc1Cl)N1CCN(c2cccc3[nH]ccc23)CC1    false (0)
1  O=C(COC(=O)CCOc1ccccc1)Nc1cc(S(=O)(=O)N2CCCCC2)ccc1Cl    false (0)
2  CCCCNC(=O)C[C@@H]1C[C@@]2(C(=O)OCC)CCC=C2N(Cc2cccc3ccccc23)C1=O    false (0)
3                COc1ccc(N=C2C=CC(=O)O2)cc1    false (0)
4         COC(=O)CSc1snnc1-c1ccc(Cl)c(Cl)c1    false (0)

Challenge: # fetch the recorded call for COc1cccc(N2CC(NC(=O)c3ccc4ccccc4c3)CC2=O)c1 (stereo not drawn) here
Response given: false (0)

Challenge: Also COc1ccc(N=Nc2c(-c3ccc(OC)cc3)[nH]oc2=O)cc1 , if possible.
Response given: true (1)

---

test_system: Fibrinogen beta chain (Homo sapiens) (UniProt P02675)
experiment: small molecules displacing Tn7 from DD(E) complex – biochemical, fluorescence polarization, human fibrin, Tn7 probe, primary screen (AID 720508);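 note: 0% = plate median of compound wells and 100% = 10 µM Aha-Tn7 peptide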
test_parameters: FP displacement of FITC-Tn7 peptide from fibrin DD(E); at 8.3 µM; active compounds read high; 0% = median of compound wells per plate
Screen size: about 370,000 compounds; about 500 (0.14%) were called active. The sample as a whole holds a higher share of actives than the screen did.
Entries and their measured inhibition follow.
Please respond with the number in % and leave the unit unwritten.

                                   molecule  readout_unit  obs_value
0  CN(C)CCNC(=O)C(C(=O)c1ccccc1)n1ccccc1=O (stereo not drawn)             %       8.86
1  O=C(COC(=O)c1cc([N+](=O)[O-])ccc1NCc1ccccc1)NC1CCCCC1             %      -0.23
2  O=S(=O)(c1cccc(-c2nnc(SC(F)F)n2-c2ccccc2)c1)N1CCCCC1             %        3.4

API: the following record is the query input.
Challenge: Reported inhibition, molecule CCc1nc2c(OCCC3CCCCC3)cccn2c1N(C)C(=O)c1ccco1 : ____
Response given: -2.4

---

test_system: Fibrinogen beta chain (Homo sapiens)
experiment: small molecules displacing Tn7 from DD(E) complex – biochemical, fluorescence polarization, human fibrin, Tn7 probe, primary screen (AID 720508);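 note: 0% = plate median of compound wells and 100% = 10 µM Aha-Tn7 peptide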
test_parameters: FP displacement of FITC-Tn7 peptide from fibrin DD(E); at 8.3 µM; active compounds read high; 0% = median of compound wells per plate
Out of some 370,000 compounds screened, about 500 (0.14%) were called active. The sample as a whole holds a higher share of actives than the screen did.
readout_label: inhibition (%)
Please respond with the number in % and leave the unit unwritten.

Study these solved cases before continuing.
>>> df
                                   compound                           test_system  obs_value
0    CC(C)CC(=O)c1c[nH]c(C(=O)NCc2ccccc2)c1  Fibrinogen beta chain (Homo sapiens)      -1.06
1  CCN(CC)CCCC(C)n1c2nc(=O)[nH]c(=O)c-2nc2cc(Cl)ccc21 (stereo not given)  Fibrinogen beta chain (Homo sapiens)      -7.28

Challenge: Fibrinogen beta chain (Homo sapiens) / inhibition / Oc1ccc2ccc3cccc[n+]3c2c1 : value?
Response given: 62.8

Challenge: Also CCC1CCCCN1C(=S)Nc1ccc(SC(F)F)cc1 (stereo not given) , if possible.
Response given: 5.34

---

Entries and their measured inhibition follow.
test_system: Fibrinogen beta chain (Homo sapiens) (UniProt P02675)
experiment: small molecules displacing Tn7 from DD(E) complex – biochemical, fluorescence polarization, human fibrin, Tn7 probe, primary screen (AID 720508);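 note: 0% = plate median of compound wells and 100% = 10 µM Aha-Tn7 peptide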
test_parameters: FP displacement of FITC-Tn7 peptide from fibrin DD(E); at 8.3 µM; active compounds read high; 0% = median of compound wells per plate
The whole screen tested about 370,000 compounds, of which about 500 (0.14%) were called active. For the sample, actives were picked, then their nearest neighbours and some compounds at random.
Please respond with the number in % and leave the unit unwritten.

In [3]: df
Out[3]:
                                   molecule  readout_label  obs_value
0  C=CCn1c(SCC(=O)c2c(N)n(C)c(=O)n(C)c2=O)nc2sc(CC)cc2c1=O     inhibition       3.02
1  CCc1nn(-c2cc(Oc3cccc4ccccc34)nc(-c3ccccc3)n2)c(N)c1C#N     inhibition        4.4

Challenge: Fibrinogen beta chain (Homo sapiens) (UniProt P02675) / inhibition / O=C(CSc1nnc(-c2ccccn2)n1-c1ccc(Cl)cc1)Nc1ccccc1-c1ccccc1 : value?
Response given: 14

Challenge: Also N#Cc1nc(Cc2cccc3ccccc23)oc1NCc1ccc2c(c1)OCO2 , if possible.
Response given: 4.95

Challenge: Also CCCC1CCC2(CCCN2CCOC(=O)NCc2ccccc2)CC1 (stereo unspecified) , if possible.
Response given: 2.73

Challenge: Also CC1(C)C/C(=C(/C#N)C(N)=O)CCO1 , if possible.
Response given: -4

Challenge: Also CSCCNC(=O)c1ccc2nc(Cc3ccccc3F)oc2c1 , if possible.
Response given: -0.81

Challenge: Also OCCn1c(-c2ccccc2)csc1=Nc1ccccc1 , if possible.
Response given: 5.44

Challenge: Also O=c1o[nH]c(-c2ccccc2)c1N=Nc1c(F)cccc1Cl , if possible.
Response given: 1.8

Challenge: Also O=C(Cn1cnc2c(nnn2Cc2ccc(F)cc2)c1=O)NCc1ccc2c(c1)OCO2 , if possible.
Response given: -1.63

Challenge: Also COc1cccc(N2CC(NS(=O)(=O)c3cccs3)CC2=O)c1 (stereo unspecified) , if possible.
Response given: 15.4

Challenge: Also Nc1nc2n(n1)C(c1ccco1)CC(c1ccc(Cl)c(Cl)c1)N2 (stereo unspecified) , if possible.
Response given: -5.38

Challenge: Also Cc1ccc(OCc2nc(C#N)c(N3CCCC3)o2)cc1 , if possible.
Response given: 0.61

Challenge: Also Cc1nn(C(C)(C)C)c(OC(=O)CC(C)C)c1S(=O)(=O)c1ccccc1 , if possible.
Response given: 1.04

Challenge: Also O=C(NCc1ccco1)C1CCCN1S(=O)(=O)c1ccccc1C(F)(F)F (stereo unspecified) , if possible.
Response given: -1.12

Challenge: Also CCOc1ccc(Nc2oc(Cc3ccccc3)nc2C#N)cc1 , if possible.
Response given: 14.8

---

test_system: Fibrinogen beta chain (Homo sapiens)
experiment: small molecules displacing Tn7 from DD(E) complex – biochemical, fluorescence polarization, human fibrin, Tn7 probe, primary screen (AID 720508);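 note: 0% = plate median of compound wells and 100% = 10 µM Aha-Tn7 peptide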
test_parameters: FP displacement of FITC-Tn7 peptide from fibrin DD(E); at 8.3 µM; 0% = median of compound wells per plate
The whole screen tested about 370,000 compounds, of which about 500 (0.14%) were called active.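 How the source made its calls: active means inhibition above the mean of compounds falling within the control limits plus 3 SD of them (cut at about 14% in these data); inactive means the rest.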 The full list was thinned out, with actives kept by preference.
Choose the fitting class; nothing outside active, inactive is accepted.

Some solved entries appear below for comparison.
                                   molecule  group_label
0  O=C(NNS(=O)(=O)c1ccc(F)cc1)c1ccc([N+](=O)[O-])cc1Cl     inactive
1  COc1cccc2c1C(=O)c1c(O)c3c(c(O)c1C2=O)CC(O)(C(C)=NNC(=O)c1ccc(Cl)c(Cl)c1)CC3OC1CC(N)C(O)C(C)O1 (centres undefined)       active
2  O=C(/C=C/c1ccc([N+](=O)[O-])cc1)NCCSCc1ccco1     inactive
3  CCCNC(=O)C(=O)Nc1cc2c3c(c1)CCC(=O)N3CCC2     inactive
4  CCC(C(=O)OC)n1cnc2c(oc3ccccc32)c1=O (centres undefined)     inactive

Challenge: # fetch the recorded call for CCOC(=O)c1ccc(NC(=O)c2c(NCc3ccccc3)[nH]c(=O)[nH]c2=O)cc1 here
Response given: inactive

Challenge: Also Cc1c(C(=O)O)nnn1-c1nonc1N , if possible.
Response given: inactive

Challenge: Also CCOC(=O)c1ccc(NC(=O)c2ccc(NC(=O)C3CCCO3)cc2)cc1 (centres undefined) , if possible.
Response given: inactive

Challenge: Also COc1ccc(NC2CC(=O)N(C)C2=O)cc1 (centres undefined) , if possible.
Response given: inactive

Challenge: Also CN(C(=O)C1CCN(c2ncnc3c2nc2n3CCCCC2)CC1)C1CCCCC1 , if possible.
Response given: inactive

Challenge: Also COc1ccc(C(=O)N(C)Cc2ccc(OC)c(OC)c2OC)cc1S(=O)(=O)N1CCOCC1 , if possible.
Response given: inactive

Challenge: Also N#CCSc1ccccc1NC(=O)CN1C(=O)NC(CCc2ccccc2)C1=O (centres undefined) , if possible.
Response given: inactive

Challenge: Also Cc1cc(C)n2c(Nc3c(C)cccc3C)c(CCc3ccccc3)nc2n1 , if possible.
Response given: inactive

Challenge: Also CN(Cc1ccccc1)CC(O)COc1ccc(CNCc2cc3ccccc3s2)cc1 (centres undefined) , if possible.
Response given: inactive
